- tested system: recombinant CK2 (casein kinase 2) (Homo sapiens, UniProt P68400)
- Sequence (P68400 whole entry): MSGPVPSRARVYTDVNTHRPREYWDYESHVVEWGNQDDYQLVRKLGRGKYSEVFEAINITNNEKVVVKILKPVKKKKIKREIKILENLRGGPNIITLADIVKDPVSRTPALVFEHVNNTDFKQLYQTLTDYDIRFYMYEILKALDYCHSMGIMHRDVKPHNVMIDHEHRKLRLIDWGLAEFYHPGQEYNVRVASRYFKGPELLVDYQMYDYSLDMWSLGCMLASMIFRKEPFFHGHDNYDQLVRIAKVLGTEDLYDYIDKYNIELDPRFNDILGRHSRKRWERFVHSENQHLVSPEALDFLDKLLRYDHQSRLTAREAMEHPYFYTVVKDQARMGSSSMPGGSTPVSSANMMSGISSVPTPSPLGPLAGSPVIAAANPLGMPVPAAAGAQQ
- Sequence (P67870 2-215 partner): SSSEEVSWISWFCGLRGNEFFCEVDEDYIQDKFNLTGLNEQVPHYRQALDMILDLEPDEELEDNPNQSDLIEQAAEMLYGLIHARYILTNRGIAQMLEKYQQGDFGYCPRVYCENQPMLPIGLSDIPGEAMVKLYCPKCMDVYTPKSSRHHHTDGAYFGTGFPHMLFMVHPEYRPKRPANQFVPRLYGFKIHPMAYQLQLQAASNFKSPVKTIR
- protocol text: Kinase-Glo residual ATP luminescence
Here, each record is paired with measured pIC50 data.
pIC50 (log units): -log10 of the concentration in mol/L.

Q: // returns reported pIC50 for input Cc1cccc(NCN2C(=O)S/C(=C\c3ccccc3)C2=O)c1
Result: 6.70

New cases:
Q: // returns reported pIC50 for input N=C1NC(=O)/C(=C/c2ccc(O)c([N+](=O)[O-])c2)S1
Result: 6.81
